Test: Evaluation of the pharmacokinetics in female Balb/c mice (IV and PO)
Assay type: in vivo
Conditions: mouse, plasma; PO 10 mg/kg, female Balb/c mice
Counter-ions that a name gives are not always drawn.
Value Type: half-life (h)
Report as a plain number; the unit h is understood.

### Prompt Form field: reported half-life of Cn1cc(-c2ccn3c(-c4cc(NS(=O)(=O)C5CC5)nc(-c5ccc(F)cc5F)c4)cnc3c2)cn1 [Trifluoroacetate salt of compound 1]
### Response 2.5

====

Where a name gives a salt, the structure may show the parent alone.
Recorded IC50 values (human VEGFR2 (Homo sapiens (Human), UniProt P35968)) are given below.
# answer = value followed by unit

Below: 2 compounds and their reported IC50.
[[record]]
compound = "Cc1c(-c2ccn3c(-c4cc(NS(C)(=O)=O)nc(-c5ccc(F)cc5F)c4)cnc3c2)cnn1C [Trifluoroacetate salt of compound 13]"
value_type = "IC50"
result = "11.1 nM"

[[record]]
compound = "CCS(=O)(=O)Nc1cc(-c2cnc3cc(-c4cnn(C)c4)ccn23)cc(-c2ccc(F)cc2F)n1 [Trifluoroacetate salt of compound 6]"
value_type = "IC50"
result = "8.09 nM"


Next compound, please.
### Prompt Form field: reported IC50 of CCOC(=O)Nc1cc(-c2cnc3cc(-c4cnn(C)c4)ccn23)cc(-c2ccc(F)cc2F)n1 [Trifluoroacetate salt of compound 3]
### Response 1.99 nM

====

Test: Evaluation of the pharmacokinetics in female Balb/c mice (IV and PO)
Type: in vivo
Conditions: mouse, plasma; IV 0.2 mg/kg, female Balb/c mice
Structures can show the parent of a compound that is named as a salt.
Value Type: AUC(0-t) (µM·h)
Report as a plain number; the unit µM·h is understood.

[[record]]
compound = "Cn1cc(-c2ccn3c(-c4cc(NS(C)(=O)=O)nc(-c5ccc(F)cc5F)c4)cnc3c2)cn1 [Trifluoroacetate salt of compound 7]"
unit_spec = "µM·h"
quantitative_readout = 0.81


Next compound, please.
### Prompt Form field: reported AUC(0-t) of Cn1cc(-c2ccc3c(c2)ncn3-c2cc(NS(=O)(=O)C3CC3)cc(-c3ccc(F)cc3F)c2)cn1 [Trifluoroacetate of compound A, reference compound]
### Response 0.663

====

Assay: Evaluation of the pharmacokinetics in female Balb/c mice (IV and PO)
Assay type: in vivo
Conditions: mouse, plasma; IV 0.2 mg/kg, female Balb/c mice
Where a name gives a salt, the structure may show the parent alone.
Value Type: clearance (mL/min/kg)
Report as a plain number; the unit mL/min/kg is understood.

[[record]]
compound = "Cn1cc(-c2ccc3c(c2)ncn3-c2cc(NS(=O)(=O)C3CC3)cc(-c3ccc(F)cc3F)c2)cn1 [Trifluoroacetate of compound A, reference compound]"
quantitative_readout = 9.2


Next compound, please.
### Prompt Form field: reported clearance of Cn1cc(-c2ccn3c(-c4cc(NS(C)(=O)=O)nc(-c5ccc(F)cc5F)c4)cnc3c2)cn1 [Trifluoroacetate salt of compound 7]
### Response 7.96

====

Experiment: Evaluation of the pharmacokinetics in female Balb/c mice (IV and PO)
Assay type: in vivo
Details: mouse, plasma; IV 2 mg/kg, female Balb/c mice; read-out: MRT0-last
Counter-ions that a name gives are not always drawn.
Value Type: MRT last (h)
Report as a plain number; the unit h is understood.

### Prompt Form field: reported MRT last of Cn1cc(-c2ccn3c(-c4cc(NS(=O)(=O)C5CC5)nc(-c5ccc(F)cc5F)c4)cnc3c2)cn1 [Trifluoroacetate salt of compound 1]
### Response 2.07
